Values compiled from patent US10428140B2.

molecular target: T1, human EphA4 (binding to human Ephrin A5) (Homo sapiens, UniProt P54764); test: Human EphA4-human ligand binding inhibition ELISA of humanized antibodies (biotinylated Ephrin A5-Fc); conditions: biotinylated human Ephrin A5-Fc 0.7 nM
T1 construct: made in house; not restated for the human SEAP-His protein
T1 sequence (P54764 20-547): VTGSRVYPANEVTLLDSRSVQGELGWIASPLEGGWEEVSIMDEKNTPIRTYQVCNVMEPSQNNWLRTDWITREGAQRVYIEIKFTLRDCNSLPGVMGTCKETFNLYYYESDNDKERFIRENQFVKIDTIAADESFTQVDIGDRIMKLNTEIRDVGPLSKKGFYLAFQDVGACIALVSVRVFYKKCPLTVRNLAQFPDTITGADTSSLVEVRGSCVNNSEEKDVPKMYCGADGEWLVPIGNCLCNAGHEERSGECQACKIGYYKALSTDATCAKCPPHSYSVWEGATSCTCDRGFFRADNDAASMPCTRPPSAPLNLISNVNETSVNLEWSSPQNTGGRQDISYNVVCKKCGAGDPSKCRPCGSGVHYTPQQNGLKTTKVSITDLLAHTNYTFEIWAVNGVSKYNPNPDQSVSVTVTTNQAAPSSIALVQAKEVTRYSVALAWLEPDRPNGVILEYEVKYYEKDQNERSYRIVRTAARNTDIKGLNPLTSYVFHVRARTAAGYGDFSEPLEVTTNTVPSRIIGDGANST
quantity_kind: IC50 (nM)
# number only, unit nM dropped from output

Check out these entries, answers already filled in.
| molecule | IC50 / nM |
| --- | --- |
| 140 (antibody, V domains shown, synthetic humanized antibody heavy chain variable region sequence; synthetic humanized antibody light chain variable region sequence) VH: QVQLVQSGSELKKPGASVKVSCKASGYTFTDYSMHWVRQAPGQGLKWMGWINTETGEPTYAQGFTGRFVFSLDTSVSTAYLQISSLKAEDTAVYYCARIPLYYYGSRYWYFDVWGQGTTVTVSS VL: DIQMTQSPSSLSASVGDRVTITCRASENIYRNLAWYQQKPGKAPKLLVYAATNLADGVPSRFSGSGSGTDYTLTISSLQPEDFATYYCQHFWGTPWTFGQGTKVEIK | 2.4 |
| 82 (antibody, V domains shown, constant regions without entry; synthetic humanized antibody light chain variable region sequence; synthetic humanized antibody heavy chain variable region sequence) VL: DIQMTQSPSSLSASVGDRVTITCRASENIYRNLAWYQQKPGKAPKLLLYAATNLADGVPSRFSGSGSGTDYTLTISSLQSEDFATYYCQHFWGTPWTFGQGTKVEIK VH: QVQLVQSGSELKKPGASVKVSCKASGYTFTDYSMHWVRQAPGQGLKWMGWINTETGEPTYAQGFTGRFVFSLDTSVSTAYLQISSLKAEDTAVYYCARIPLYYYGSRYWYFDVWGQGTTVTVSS | 4.1 |
| 94 (antibody, V domains shown, constant regions without entry; synthetic humanized antibody light chain variable region sequence; synthetic humanized antibody heavy chain variable region sequence) VL: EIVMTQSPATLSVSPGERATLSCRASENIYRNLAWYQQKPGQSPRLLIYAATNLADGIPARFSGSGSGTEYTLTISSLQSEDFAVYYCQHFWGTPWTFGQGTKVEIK VH: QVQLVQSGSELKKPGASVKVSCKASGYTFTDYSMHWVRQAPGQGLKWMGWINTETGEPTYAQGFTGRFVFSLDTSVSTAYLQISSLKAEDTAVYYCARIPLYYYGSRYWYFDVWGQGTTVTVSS | 2.7 |

Now take the following molecule into account.
Prompt: Look up IC50: 158 (antibody, V domains shown, synthetic humanized antibody heavy chain variable region sequence; synthetic humanized antibody light chain variable region sequence) VH: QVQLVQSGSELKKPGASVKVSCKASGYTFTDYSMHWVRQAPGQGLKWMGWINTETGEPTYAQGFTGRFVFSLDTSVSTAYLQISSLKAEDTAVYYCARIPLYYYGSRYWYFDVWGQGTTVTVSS VL: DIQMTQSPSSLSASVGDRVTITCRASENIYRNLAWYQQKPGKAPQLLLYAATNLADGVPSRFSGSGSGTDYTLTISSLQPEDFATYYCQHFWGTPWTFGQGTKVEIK
Response: 2.8
